- System: MS2 coat protein
- method.notes: apparent KD of MS2 coat protein; higher = weaker reporter binding
- experimental.parameters: Eterna round: R107; input ligand: theophylline 20 uM
endpoint: apparent KD of MS2 coat protein (nM)
State the answer as a number, implicitly in nM.

Item under review: GCUGCCAUACGAAGGAGCGCUGUUGCAAUGAGGCGAACAUGAGGAUCACCCAUGUGGCAAAAGCAGGUAGGUCGCGUAUGGCAGC [EAB #17] . Reported apparent KD of MS2 coat protein?
29.3

Need apparent KD of MS2 coat protein, item UCCACAUGAGGAUCACCCAUGUGCCAUGAUACCAGACAUGAAAAUGUCCCUUGGCAGCAUGAGUGAGGCAUCCGAAAGGAUGCCU [Chrlice]
260

Dear colleague, I am looking for the recorded apparent KD of MS2 coat protein of the following sequence: CAAAUAGACCACGAUACCAGAACACAAGGAGUAAUAUCAAACAUGAGGAUCACCCAUGUCUUCCCUUGGCAGCGUAGCACGGAGU [theeternabot_exclusion_MS2_Theo_B_23]
15.2
